Target: T1, recombinant cynomolgus monkey C5 (cynomolgus monkey, UniProt P01031 20-1676 (human entry), limits assumed)
T1 construct: also called cynoC5
T1 chain: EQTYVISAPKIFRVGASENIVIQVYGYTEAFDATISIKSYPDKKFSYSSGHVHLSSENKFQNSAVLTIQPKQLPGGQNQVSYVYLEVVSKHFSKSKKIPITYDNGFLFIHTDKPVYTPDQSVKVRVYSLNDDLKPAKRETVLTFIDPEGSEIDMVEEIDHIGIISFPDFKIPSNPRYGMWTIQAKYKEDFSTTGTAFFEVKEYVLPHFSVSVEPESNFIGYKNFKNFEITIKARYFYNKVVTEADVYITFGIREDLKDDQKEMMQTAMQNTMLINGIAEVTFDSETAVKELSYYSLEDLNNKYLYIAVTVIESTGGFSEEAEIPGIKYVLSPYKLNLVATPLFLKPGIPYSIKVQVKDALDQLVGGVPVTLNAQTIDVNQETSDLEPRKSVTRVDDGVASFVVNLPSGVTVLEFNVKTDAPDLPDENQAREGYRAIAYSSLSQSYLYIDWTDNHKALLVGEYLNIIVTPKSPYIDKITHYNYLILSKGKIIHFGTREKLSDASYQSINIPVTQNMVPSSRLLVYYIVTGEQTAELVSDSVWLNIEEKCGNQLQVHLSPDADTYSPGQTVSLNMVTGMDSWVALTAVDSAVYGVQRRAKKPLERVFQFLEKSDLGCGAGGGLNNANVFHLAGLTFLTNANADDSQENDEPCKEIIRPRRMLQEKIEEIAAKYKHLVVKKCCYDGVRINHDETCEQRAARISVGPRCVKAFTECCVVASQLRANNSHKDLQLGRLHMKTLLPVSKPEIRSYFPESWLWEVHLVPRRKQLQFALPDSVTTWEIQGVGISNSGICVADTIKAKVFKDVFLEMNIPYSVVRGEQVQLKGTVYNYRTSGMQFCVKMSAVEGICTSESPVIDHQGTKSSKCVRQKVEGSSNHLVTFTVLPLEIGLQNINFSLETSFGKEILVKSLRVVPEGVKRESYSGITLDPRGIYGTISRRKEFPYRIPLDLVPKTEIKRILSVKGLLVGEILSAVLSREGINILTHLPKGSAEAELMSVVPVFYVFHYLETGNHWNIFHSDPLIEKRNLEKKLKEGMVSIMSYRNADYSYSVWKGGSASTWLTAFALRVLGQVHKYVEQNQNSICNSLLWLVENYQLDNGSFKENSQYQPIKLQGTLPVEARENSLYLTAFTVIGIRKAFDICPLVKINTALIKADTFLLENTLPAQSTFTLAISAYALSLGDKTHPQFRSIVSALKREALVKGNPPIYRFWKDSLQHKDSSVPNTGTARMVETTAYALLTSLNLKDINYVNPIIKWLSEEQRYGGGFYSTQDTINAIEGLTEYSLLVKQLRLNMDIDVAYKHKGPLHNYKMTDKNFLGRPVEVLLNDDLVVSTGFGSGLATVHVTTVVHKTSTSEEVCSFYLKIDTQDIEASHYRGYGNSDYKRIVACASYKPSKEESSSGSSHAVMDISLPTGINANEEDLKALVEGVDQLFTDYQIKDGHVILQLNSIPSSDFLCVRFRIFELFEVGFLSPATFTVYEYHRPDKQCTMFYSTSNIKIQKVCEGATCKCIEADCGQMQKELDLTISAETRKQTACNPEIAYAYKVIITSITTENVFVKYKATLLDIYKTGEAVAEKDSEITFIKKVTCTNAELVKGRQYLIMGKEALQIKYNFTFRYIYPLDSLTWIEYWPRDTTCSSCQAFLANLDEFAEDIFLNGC
Assay: SPR (Biacore), 37C, pH 7.4, Ab captured on ProA/G
Overview of reported Kd across a group of binders:
Number only, in µM; omit the unit.

| binder | units.of.measure | Kd |
| --- | --- | --- |
| CFA0538 (antibody, V domains shown, Chimeric, rabbit V regions; also called CFA0538-F760G4) VH: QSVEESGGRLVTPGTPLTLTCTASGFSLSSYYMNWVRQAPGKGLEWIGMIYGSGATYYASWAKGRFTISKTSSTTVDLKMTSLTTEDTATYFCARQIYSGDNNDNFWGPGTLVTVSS VL: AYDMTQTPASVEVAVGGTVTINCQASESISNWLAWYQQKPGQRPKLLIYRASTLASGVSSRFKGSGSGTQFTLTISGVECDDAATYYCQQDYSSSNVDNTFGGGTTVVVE | µM | 0.00544 |

Here's the next entry for you.
Q: Consider the binder CFA0366 (antibody, V domains shown, Chimeric, rabbit V regions; also called CFA0366-F760G4) VH: QSLEESGGDLVKPGASLSLTCTAAGLDFSSSYYMCWVRQAPGKGLEWIACIYAGSSGIIYYANWAKGRFTISRPSSTTVTLQMTSLTAADTATYFCATYPTYGDGGHAFNLWGPGTLVTVSS VL: AQVLTQTPSSVSAAVGGTVTINCQSSQSVYSSDYLSWYQQKPGQPPKLLIYEASKLASGVPPRFSGSGSGTQFTLTISGVQCDDAATYYCQGTYYSSGWYFAFGGGTEVVVK and give its recorded Kd.
Result: 0.0179
